Every entry's value here was drawn from patent US20100129369A1.

Target: human c-Met (human, UniProt P08581 25-1390)
Sequence (P08581 25-1390): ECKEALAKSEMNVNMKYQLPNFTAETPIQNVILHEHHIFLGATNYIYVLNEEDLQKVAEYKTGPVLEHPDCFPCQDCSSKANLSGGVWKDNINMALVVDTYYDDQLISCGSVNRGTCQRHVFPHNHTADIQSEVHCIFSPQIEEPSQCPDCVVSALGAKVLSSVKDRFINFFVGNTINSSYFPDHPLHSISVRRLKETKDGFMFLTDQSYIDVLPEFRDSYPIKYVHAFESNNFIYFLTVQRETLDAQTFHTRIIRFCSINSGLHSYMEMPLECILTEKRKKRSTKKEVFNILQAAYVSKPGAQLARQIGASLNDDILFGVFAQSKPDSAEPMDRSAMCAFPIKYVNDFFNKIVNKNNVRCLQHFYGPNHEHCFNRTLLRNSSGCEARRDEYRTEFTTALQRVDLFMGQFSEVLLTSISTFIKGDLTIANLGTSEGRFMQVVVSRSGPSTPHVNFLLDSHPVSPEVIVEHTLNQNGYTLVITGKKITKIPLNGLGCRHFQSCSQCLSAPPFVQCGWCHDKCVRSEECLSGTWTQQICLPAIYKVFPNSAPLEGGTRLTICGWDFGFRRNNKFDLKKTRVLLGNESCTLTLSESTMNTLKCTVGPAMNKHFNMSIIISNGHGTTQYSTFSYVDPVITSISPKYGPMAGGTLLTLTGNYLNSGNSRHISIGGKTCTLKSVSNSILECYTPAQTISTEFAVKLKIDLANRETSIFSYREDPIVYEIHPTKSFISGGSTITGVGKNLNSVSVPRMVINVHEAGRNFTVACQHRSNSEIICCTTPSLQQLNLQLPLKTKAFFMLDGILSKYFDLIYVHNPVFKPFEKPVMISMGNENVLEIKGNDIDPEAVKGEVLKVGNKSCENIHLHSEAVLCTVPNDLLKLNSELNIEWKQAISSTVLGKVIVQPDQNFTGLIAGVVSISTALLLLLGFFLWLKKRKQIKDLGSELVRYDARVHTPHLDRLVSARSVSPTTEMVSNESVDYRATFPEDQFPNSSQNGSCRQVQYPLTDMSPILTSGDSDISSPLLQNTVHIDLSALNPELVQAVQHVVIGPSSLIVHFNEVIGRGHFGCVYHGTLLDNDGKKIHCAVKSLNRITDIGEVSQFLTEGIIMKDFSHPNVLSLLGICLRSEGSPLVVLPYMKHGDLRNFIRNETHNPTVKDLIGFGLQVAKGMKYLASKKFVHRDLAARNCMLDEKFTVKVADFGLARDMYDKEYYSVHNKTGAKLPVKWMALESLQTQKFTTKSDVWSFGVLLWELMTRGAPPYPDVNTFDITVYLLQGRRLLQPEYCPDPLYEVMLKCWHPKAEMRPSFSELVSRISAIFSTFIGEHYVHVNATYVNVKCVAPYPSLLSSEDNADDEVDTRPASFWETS
Experiment: cell-based or functional assay
measurementType: % inhibition of HGF stimulated phospho-Met (ELISA, HCT116 cells), Ab 0.08 µg/mL (%)
One number for each entry, in %.

Exercise: For the binder shown here, D11-S17Y (antibody, human IgG2, kappa, V domains shown, Human engineered IgG2 kappa c-Met antibody; also called D11-S17Y IgG2) VH: QVQLVQSGAEVKKPGSSVKVSCKASGYTFTSRYIHWVRQAPGQGLEWMGWIYPVTGDTYYNEKFKGRVTITADKSTSTAYMELSSLRSEDTAVYYCARGYGAFYYWGQGTLVTVSS VL: EIVLTQSPGTLSLSPGERATLSCSVSSSISSTNLHWYQQKPGQAPRLLIYGTSYLASGIPDRFSGSGSGTDFTLTISRLEPEDFAVYYCQQWSSYPYSFGQGTKLEIKR , give the reported % inhibition of HGF stimulated phospho-Met (ELISA, HCT116 cells), Ab 0.08 µg/mL.
Key: -3.24
